target: TYK2 (Homo sapiens)
Sequence (P29597 whole entry): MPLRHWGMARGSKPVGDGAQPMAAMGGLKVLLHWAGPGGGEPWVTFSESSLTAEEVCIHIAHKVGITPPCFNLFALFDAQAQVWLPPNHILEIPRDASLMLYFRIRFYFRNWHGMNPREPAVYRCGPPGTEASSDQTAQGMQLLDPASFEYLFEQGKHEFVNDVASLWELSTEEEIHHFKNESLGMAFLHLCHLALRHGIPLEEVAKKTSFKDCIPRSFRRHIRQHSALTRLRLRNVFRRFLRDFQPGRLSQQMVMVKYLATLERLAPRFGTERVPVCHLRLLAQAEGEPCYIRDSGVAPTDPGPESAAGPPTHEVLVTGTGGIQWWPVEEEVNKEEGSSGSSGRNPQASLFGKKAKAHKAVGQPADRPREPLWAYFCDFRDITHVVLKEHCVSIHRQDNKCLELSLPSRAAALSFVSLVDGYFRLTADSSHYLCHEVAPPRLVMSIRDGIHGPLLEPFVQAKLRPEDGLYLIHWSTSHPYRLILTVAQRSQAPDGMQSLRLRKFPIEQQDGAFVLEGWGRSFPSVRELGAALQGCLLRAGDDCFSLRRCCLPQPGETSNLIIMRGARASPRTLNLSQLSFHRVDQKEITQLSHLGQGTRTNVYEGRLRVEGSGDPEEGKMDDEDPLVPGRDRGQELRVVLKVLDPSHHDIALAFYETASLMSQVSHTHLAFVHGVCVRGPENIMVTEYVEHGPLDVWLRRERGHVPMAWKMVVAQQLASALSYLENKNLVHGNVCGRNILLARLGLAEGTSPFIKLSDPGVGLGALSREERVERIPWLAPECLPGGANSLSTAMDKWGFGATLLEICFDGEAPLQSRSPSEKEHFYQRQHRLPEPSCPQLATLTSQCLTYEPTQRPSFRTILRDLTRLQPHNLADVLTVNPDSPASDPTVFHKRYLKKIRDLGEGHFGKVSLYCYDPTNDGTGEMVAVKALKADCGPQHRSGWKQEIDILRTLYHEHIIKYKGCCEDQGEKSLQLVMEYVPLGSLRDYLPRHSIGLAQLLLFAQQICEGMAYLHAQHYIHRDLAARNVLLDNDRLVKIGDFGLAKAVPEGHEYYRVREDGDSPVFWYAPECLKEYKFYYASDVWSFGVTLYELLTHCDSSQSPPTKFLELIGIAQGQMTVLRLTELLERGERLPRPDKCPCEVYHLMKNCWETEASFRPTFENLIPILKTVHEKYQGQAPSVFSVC
Can you tell me Kd for the items I'm about to list?

[
  {
    "Molecule": "COC(c1ccc(F)cc1)c1nc(Nc2cc(C)[nH]n2)c2ccsc2n1 (racemic)",
    "Experimental target": "TYK2 (Homo sapiens)",
    "Kd": "≤ 10 nM"
  },
  {
    "Molecule": "Cc1cc(Nc2nc(C(F)(F)c3ccc(F)cn3)nc3ccsc23)n[nH]1",
    "Experimental target": "TYK2 (Homo sapiens)",
    "Kd": "≤ 10 nM"
  },
  {
    "Molecule": "Cc1cc(Nc2nc(C(O)c3ccc(F)cc3)nc3scc(C)c23)n[nH]1 (racemic)",
    "Experimental target": "TYK2 (Homo sapiens)",
    "Kd": "> 100 nM"
  }
]

Kindly review the next molecule as well.
Consider the molecule shown here: Cc1cc(Nc2nc(C(F)(F)c3ccc(F)cc3)nc3sccc23)n[nH]1 What is its recorded Kd?
≤ 10 nM

----------
Below are Kd values recorded for TYK2 (Homo sapiens).

Some solved entries appear below for comparison.
[
  {
    "Compound": "Cc1cc2c(Nc3cc[nH]n3)nc(C(O)c3ccc(F)cc3)nc2s1 (racemic) [Example 17]",
    "Kd": "> 100 nM"
  },
  {
    "Compound": "Cc1cc(Nc2nc(C(O)c3ccc(F)cc3)nc3cscc23)n[nH]1 (racemic) [Example 32]",
    "Kd": "≤ 10 nM"
  },
  {
    "Compound": "COC(c1ccc(F)cc1)c1nc(Nc2cc(C)[nH]n2)c2sccc2n1 (stereo not drawn) [Example 19]",
    "Kd": "10 to 100 nM"
  },
  {
    "Compound": "Cc1cc(Nc2nc(C(O)c3ccc(F)cc3)nc3sc(C)cc23)n[nH]1 (racemic) [Example 16]",
    "Kd": "≤ 10 nM"
  }
]

Go through the list and state Kd for each entry.
1. CC(C)(C)c1cc2nc(C(F)(F)c3ccc(F)cc3)nc(Nc3cc[nH]n3)c2s1 [Example 31]
2. CC(C)(C)c1cc2nc(C(O)c3ccc(F)cc3)nc(Nc3cc[nH]n3)c2s1 (racemic) [Example 29]

["> 100 nM", "> 100 nM"]

----------
test system: distinct kinases tested excluding mutant variants, typically 359 or 386 kinases; test: Kinase selectivity score from competition binding panel; settings: compound at 10 μM; fraction of kinases with inhibition of 90% or greater
Readout label: S-Score: S(10) at 10 μM

Reference set, count: 5
[
  {
    "Molecule": "Cc1cc(Nc2nc(C(O)c3ccc(F)cc3)nc3cc(C(C)(C)C)sc23)n[nH]1 (stereo not shown)",
    "Measurement": "A (A ≦ 0.3)"
  },
  {
    "Molecule": "Cc1cc2c(Nc3cn(C)cn3)nc(C(O)c3ccc(F)cc3)nc2s1 (stereo not shown)",
    "Measurement": "A (A ≦ 0.3)"
  },
  {
    "Molecule": "Cc1csc2nc(C(O)c3ccc(F)cc3)nc(Nc3cc[nH]n3)c12 (racemic)",
    "Measurement": "A (A ≦ 0.3)"
  },
  {
    "Molecule": "Cc1cc(Nc2nc(C(O)c3ccc(F)cc3)nc3cscc23)n[nH]1 (racemic)",
    "Measurement": "B (0.3 < B ≦ 0.4)"
  },
  {
    "Molecule": "Cc1cc(Nc2nc(C(F)(F)c3ccc(F)cc3)nc3sccc23)n[nH]1",
    "Measurement": "B (0.3 < B ≦ 0.4)"
  }
]

Respectfully, I request S-Score: S(10) at 10 μM for each entry included below.
1. Cc1cc(Nc2nc(C(F)(F)c3ccc(F)cn3)nc3ccsc23)n[nH]1
2. COC(c1ccc(F)cc1)c1nc(Nc2cc(C)[nH]n2)c2sccc2n1 (stereo not shown)
3. CC(C)(C)c1cc2nc(C(F)(F)c3ccc(F)cc3)nc(Nc3cc[nH]n3)c2s1
4. Cc1cc(Nc2nc(C(O)c3ccc(F)cc3)nc3ccsc23)n[nH]1 (racemic)
5. Fc1ccc(C(F)(F)c2nc(Nc3cc[nH]n3)c3sccc3n2)cc1
6. Cc1cc2c(Nc3cc[nH]n3)nc(C(F)(F)c3ccc(F)cc3)nc2s1
7. Cc1cc(Nc2nc(C(=O)c3ccc(F)cc3)nc3cc(C(C)(C)C)sc23)n[nH]1
8. Cc1cc(Nc2nc(C(F)(F)c3ccc(F)cc3)nc3sc(C)cc23)n[nH]1

1. C (0.4 < C ≦ 0.5)
2. A (A ≦ 0.3)
3. A (A ≦ 0.3)
4. A (A ≦ 0.3)
5. A (A ≦ 0.3)
6. A (A ≦ 0.3)
7. A (A ≦ 0.3)
8. A (A ≦ 0.3)
